# assay: NCI Yeast Anticancer Drug Screen. Data for the mec2-1 strain (AID 157)
# condition.context: S. cerevisiae mec2-1 strain, at 50.0 µM (retest, dose inferred, filed as 5.0)
The panel holds about 79,000 compounds, 15% with a hit somewhere; the sample as a whole holds those more often. The source made the active and inactive calls. No stated cut-off is given here; in the data, active means growth inhibition above about 70%; inactive means the rest.
Tick one outcome: active, inactive

Worked cases, answers included:
IN: For this molecule, state the assay outcome: O=C(CCl)Nc1ccc(C(=O)N/N=C/c2ccc(Cl)cc2)cc1
OUT: inactive

IN: Next up: COc1ccc(/C=C2\CCCC(CN(C)C)C2=O)cc1 (stereo unspecified)
OUT: inactive

IN: Could you do the same for N#CC1Sc2ccccc2N1C(=O)OCc1ccccc1 (stereo unspecified) , please?
OUT: active

IN: Entry O=C(O)CSCc1ccc(Cl)cc1 please
OUT: inactive

Next:
IN: What did this assay record as the result for O=c1cc[nH]cc1 ?
OUT: inactive

IN: Next molecule up: c1ccc(Cc2cc3ccccc3c3ccccc23)cc1
OUT: inactive

IN: // same read-out, input: CCCC1CCC(=C2C(=O)CCC2=O)O1 (stereo unspecified)
OUT: inactive

====

Here the recorded growth inhibition is given for each entry.
# assay: NCI Yeast Anticancer Drug Screen. Data for the cln2 rad14 strain (AID 165);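 further: 0% = growth equal to vehicle treated cultures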
# condition.context: S. cerevisiae cln2 rad14 strain, at 50.0 µM (retest, dose inferred, filed as 5.0), active compounds read high
This is part of a sample that, as a whole, favours compounds with a hit. Of some 79,000 tested, about 15% had one in any assay. Active and inactive are the calls of the source. Rule as the data show it: active = growth inhibition above about 70%; inactive = the rest.

// known answers, use as guide
IN: Please report the recorded growth inhibition for CCN(CC)CCC(=O)/C=C/c1ccccc1 .
OUT: 97% (active)

IN: Also need CCOC(=O)/C(C#N)=C\c1ccc([N+](=O)[O-])o1 , thanks.
OUT: 98% (active)

IN: And the next one, CN1C(c2ccccc2)CC(=NOCc2ccccc2)CC1c1ccccc1 (stereo not drawn) ?
OUT: 97% (active)

IN: For c1ccc(-c2conc2-c2ccccc2)cc1 then?
OUT: 68% (inactive)

IN: Would you mind doing O=C(O)c1ccccc1C(=O)O as well?
OUT: 7% (inactive)

IN: Next entry: CC(C)C1=CC23CCC4C(C)(C(=O)O)CCCC4(C)C2CC1C1C(=O)OC(=O)C13 (stereo not drawn)
OUT: 99% (active)

Continuing:
IN: Data request, read-out growth inhibition, for CC1=CC(=Nc2ccc(N(C)C)cc2)C=CC1=O
OUT: -6% (inactive)

IN: Now the same for CCC[CH2][Sn]1([CH2]CCC)[O]N=C(c2ccccc2)C(c2ccccc2)[O]1 (stereo not drawn)
OUT: 8% (inactive)

====

# assay: NCI Yeast Anticancer Drug Screen. Data for the cln2 rad14 strain (AID 165);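 further: 0% = growth equal to vehicle treated cultures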
# condition.context: S. cerevisiae cln2 rad14 strain, at 50.0 µM (retest, dose inferred, filed as 5.0), active compounds read high
Compounds without any hit were thinned out: in the full panel of roughly 79,000, 15% have a hit.
Overview of reported growth inhibition across a group of compounds:
Number in %, nothing else.

Observe how each entry below is paired with its result.
IN: Data request, read-out growth inhibition, for C=C(C)C(=O)Oc1ccc(NC(=O)c2ccccc2)ccc1=O
OUT: 92

IN: Item: O=C1/C(=C/c2ccc(Cl)cc2)Sc2scc(-c3cccc([N+](=O)[O-])c3)[n+]21
OUT: 98

IN: What about this compound? COc1ccc(CC(=O)c2ccc(O)cc2O)cc1
OUT: 76

---
IN: // lookup growth inhibition for NC(=O)SCC(=O)NNc1ccccc1
OUT: 60

IN: O=C(O)c1c2ccccc2nc2[nH]c(=O)[nH]c(=O)c12 ?
OUT: 6

IN: Same question for Nc1ccc(Cc2ccc(Br)cc2)cc1 please.
OUT: 98

IN: Subsequent entry: CCN(C(=O)C(Cl)Cl)C(Cc1ccccc1)c1ccccc1 (configuration not stated)
OUT: 74

IN: Try this compound too: O=[N+]([O-])c1c(Br)cc(Br)c2c1Nc1c(ccc(Cl)c1Cl)S2
OUT: 93

IN: Next compound: CCCCCC[C@H](C/C=C\CCCCCCCC(=O)OC)OC(C)=O
OUT: -4

IN: Ok, now O=C1C(CN2CCOCC2)CCCC1CN1CCOCC1 (configuration not stated)
OUT: 97

IN: O/N=C/c1cc(I)c(O)c(I)c1 , same question.
OUT: 98

IN: Please give the result for O=[N+]([O-])c1ccc(OCCN(Cc2ccccc2)Cc2ccccc2)c([N+](=O)[O-])c1 too.
OUT: 24

====

Here, each record is paired with measured growth inhibition data.
# assay: NCI Yeast Anticancer Drug Screen. Data for the sgs1 mgt1 strain (AID 161);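 further: 0% = growth of cultures given vehicle only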
# condition.context: S. cerevisiae sgs1 mgt1 strain, at 5.0 µM (retest, dose inferred, filed as 0.5), active compounds read high
About 79,000 compounds went through this panel and 15% of them were active in at least one assay; those are over-represented in the sample as a whole.
Write the number in % without appending the unit.

IN: Query: growth inhibition; subject: Cc1noc(-c2ccc([N+](=O)[O-])o2)n1
OUT: 5

IN: Now the same for O=S(O)CCCCSSCC(O)C(O)CSSCCCCS(=O)O (configuration not stated)
OUT: 6

IN: CCCC1=CCCC1 , same question.
OUT: -1

IN: Now the same for Nc1nnc(/C=C/c2ccccc2)o1
OUT: -8

Next:
IN: Would you mind telling me what growth inhibition value was observed for COC(=O)C1OC(OC(C)=O)C(OC(C)=O)C(OC(C)=O)C1OC(C)=O (configuration not stated) ?
OUT: -5

IN: Next compound: Nc1ccc2c(n1)NCC/C2=N\Nc1ccccc1
OUT: -4

====

# assay: NCI Yeast Anticancer Drug Screen. Data for the mlh1 rad18 strain (AID 175)
# condition.context: S. cerevisiae mlh1 rad18 strain growth inhibition; at 50.0 µM (retest, dose inferred, filed as 5.0)
Compounds without any hit were thinned out: in the full panel of roughly 79,000, 15% have a hit. Activity calls are given as the source filed them. No stated cut-off is given here; in the data, active means growth inhibition above about 70%; inactive means the rest.
Your reply should match one of these outcome classes. Y (active), N (inactive)

Study these solved cases before continuing.
IN: Check the results log: what was the call for COC(=O)c1nnn(-c2ccc(S(N)(=O)=O)cc2)c1N ?
OUT: N

IN: Same for O=C(O)CSCc1ccc(Cl)cc1
OUT: N

IN: Now try Nc1ncnc(N)c1N=O .
OUT: N

Continuing:
IN: Which outcome was entered for the compound CC1C[C@]2(C)C(=O)Nc3ccccc3[C@@H]2Nc2ccccc21 (stereo partly specified) in this test?
OUT: N

IN: Same read-out for NC(C/[N+]([O-])=N/O)C(=O)O (stereo unspecified) ?
OUT: N

IN: Entry to check: CC1(C)CC(=O)C2=C(C1)OC1=C(CC(C)(C)CC1=O)C2c1ccccc1Cl (stereo unspecified)
OUT: N

IN: Try the compound CC(C)(Cc1nocc1C(C)(C)CC#N)c1cc(CC(C)(C)C2(C)OCCO2)no1
OUT: N

IN: Field entry: CCCC1CCC(=C2C(=O)CCC2=O)O1 (stereo unspecified)
OUT: N

IN: Note, next up: CCC(C)[P+](c1ccccc1)(c1ccccc1)c1ccccc1 (stereo unspecified)
OUT: N

IN: What about this compound? C=C[C@]1(C)C=C2C(O)CC3C(C)(C)CCC[C@]3(CO)C2CC1 (stereo partly specified)
OUT: Y

IN: And what about the compound O=C1C=CC(=O)N1c1ccc(N=Nc2ccccc2)cc1 ?
OUT: Y

IN: Now the compound COC1/C=C\C=C(/C)C(=O)Nc2cc3nc4ccc(Br)cc4oc-3c(c2=O)CC(C)CC(OC)C(O)C(C)/C=C(\C)C1OC(N)=O (stereo unspecified)
OUT: Y

IN: And CCN1/C(=C/C=C/C=C/c2sc3ccccc3[n+]2CC)Sc2ccccc21 ?
OUT: N

IN: Next record, please: Cc1c(Cl)cccc1NC(=O)CC1Sc2ccccc2NC1=O (stereo unspecified)
OUT: Y

IN: What do you have for COc1cccc2c1C(=O)c1c(O)c3c(c(O)c1C2=O)C[C@@](O)(C(C)=O)C[C@@H]3OC1CC(O)C(O)C(C)O1 (stereo partly specified) ?
OUT: Y

IN: Can you check CN(C)c1ccc(/C=C/c2ccnc3ccccc23)c(Cl)c1 next?
OUT: N

IN: # repeat for Cc1ccccc1N=Nc1ccc(N=Nc2ccc(N)nc2N)c(C)c1
OUT: N

IN: Another compound to look at: Nc1nc(-c2ccccn2)cc2ccccc12
OUT: Y

IN: Same lookup for CN(C)/C=C1\CCc2ccc([N+](=O)[O-])cc2C1=O , please.
OUT: N

IN: // same read-out, input: CCCCCCCCCCCCN
OUT: Y

IN: Can you handle NC(CC(=O)O)C(=O)O (stereo unspecified) next?
OUT: N

====

# assay: NCI Yeast Anticancer Drug Screen. Data for the cln2 rad14 strain (AID 165);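 further: 0% = growth equal to vehicle treated cultures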
# condition.context: S. cerevisiae cln2 rad14 strain, at 5.0 µM (retest, dose inferred, filed as 0.5), active compounds read high
About 79,000 compounds went through this panel and 15% of them were active in at least one assay; those are over-represented in the sample as a whole. Where a SMILES comes first, the peptide text is derived from it.
Listing of recorded growth inhibition by entry.
Could you give me the number in %? Just the number is fine.

Past entries and their recorded results:
IN: Endpoint output: growth inhibition of Cc1ccc(C(C)C)c2c1CN(CCN1COc3c(C(C)C)ccc(C)c3C1)CO2 . Value?
OUT: -4

IN: What about CC(=O)[O-].[O-]c1c(Cl)cc(Cl)cc1/C=N/Nc1ccccn1.[Zn+2] ?
OUT: -1

IN: Can you check NC(=O)SCC(=O)NNc1ccccc1 next?
OUT: 11

IN: # repeat for CC(C)C(NC(=O)C(N)CCC(=O)O)C(=O)O (stereo not drawn) (H-Glu-Val-OH; configuration not given here)
OUT: 5

IN: Entry to check: NS(=O)(=O)c1ccc(Nc2c3ccccc3nc3c(C(=O)N4CCN(CCO)CC4)cccc23)cc1
OUT: 25

---
IN: Could you share which growth inhibition value was measured for CCCCCCCCCCCCN ?
OUT: 73

IN: Follow-up item: O=C1OC(c2ccc(O)cc2)(c2ccc(O)cc2)c2cccc3cccc1c23
OUT: 14

IN: Next entry: O=C(c1ccco1)N(C(=S)N1CCN(c2ccccn2)CC1)C1CCCCC1
OUT: 30

IN: Same again, this time with O=C1OC(CN2CCOCC2)CN1/N=C/c1ccc([N+](=O)[O-])o1 (stereo unspecified)
OUT: 1

IN: Query CC1(C)OC2C(O)C(O)C3OC(C)(C)OC3C2O1 (stereo unspecified) next
OUT: -1

IN: Repeat for the following molecule: COc1cc2c(c3c1/c(=N/N(C)C)c1ccccc1n3C)C=CC(C)(C)O2
OUT: -10
